- Test system: MOLT-4 leukemia
- assay.comment: NCI tumour cell line growth inhibition, 48 h; in the data active = GI50 below about 0.43 µM; inactive = the rest
One label from this list, please: 1 (yes) for active, 0 (no) for inactive

Look over these answered cases.
COc1cc2c3c(n(CCCN)c(=O)c2cc1OC)-c1ccc(F)cc1C3=O ... 1 (yes)
O=C1C(Cl)=C(Nc2ccc3cn[nH]c3c2)C(=O)c2ccccc21 ... 0 (no)

Okay, next one:
# fetch the recorded call for `C#CCN1CCN(C(=S)N/N=C(\C)c2ccccn2)CC1` here
1 (yes)

----------
- System: RPMI-8226 leukemia
- assay.comment: NCI tumour cell line growth inhibition, 48 h
Below, each entry is listed with its recorded TGI.

The following molecules have reported results that may help.
N#Cc1c(=O)c2cc([N+](=O)[O-])ccc2n2c1[nH]c1ccccc12 ... > 100 µM
CCSc1nc2sc(C)c(C)c2c(=O)n1-c1ccc(C(=O)O)cc1 ... > 100 µM

# get_value(readout='TGI', item= `CCN1/C(=C/c2ccc3ccccc3[n+]2CC)C=Cc2ccccc21` )
> 23.4 µM

Same read-out for `CCC(=O)OCc1ccc2oc(=O)c(C(=O)Oc3cncc(Cl)c3)cc2c1` ?
> 100 µM

Same read-out for NC(=O)c1csc(C2C=CC(CO)O2)n1 (stereo not drawn) ?
> 100 µM

Same read-out for N/N=C1\c2ccccc2C2/C(=N\N)c3ccccc3C12 (stereo not drawn) ?
> 100 µM

Same read-out for `Cc1ccc(NC(=O)CC(=O)n2nc(-c3ccccc3)c(N=Nc3ccc(Cl)cc3)c2-c2ccccc2)cc1` ?
47.8 µM

Same read-out for CC1C=C(OC(=O)c2ccccc2)C(=O)C(n2cc(F)c(=O)n(C(=O)c3ccccc3)c2=O)O1 (stereo not drawn) ?
> 100 µM
